Please respond with reported inhibition at 1000 µM for every item in the list.
Biological target: aryl sulfatase A (ARSA) (Homo sapiens)
Construct: purchased R & D Systems
Test: ARSA inhibition assay with 4-MUS substrate
Format: biochemical
Conditions: 1 mM compound; 4-MUS substrate; means of two or more determinations; read-out: ARSA% inh @ 1 mM
Numeric answer only, unit % assumed.

Write down measured inhibition at 1000 µM (aryl sulfatase A (ARSA) (Homo sapiens)) for this compound. NS(=O)(=O)Oc1cccc(-c2ccccc2C(=O)O)c1 98

GET inhibition at 1000 µM | system: aryl sulfatase A (ARSA) (Homo sapiens) | item: NS(=O)(=O)Oc1cccc(-c2cccc(NS(=O)(=O)O)c2)c1 0

GET inhibition at 1000 µM where system = aryl sulfatase A (ARSA) (Homo sapiens) and item = CC(=O)Nc1cccc(Oc2cccc(OS(N)(=O)=O)c2)c1 57

----------
Target: Sulf-2 (Homo sapiens)
Construct: host or cells: 293T cells, transiently transfected
Sequence (Q8IWU5 25-870): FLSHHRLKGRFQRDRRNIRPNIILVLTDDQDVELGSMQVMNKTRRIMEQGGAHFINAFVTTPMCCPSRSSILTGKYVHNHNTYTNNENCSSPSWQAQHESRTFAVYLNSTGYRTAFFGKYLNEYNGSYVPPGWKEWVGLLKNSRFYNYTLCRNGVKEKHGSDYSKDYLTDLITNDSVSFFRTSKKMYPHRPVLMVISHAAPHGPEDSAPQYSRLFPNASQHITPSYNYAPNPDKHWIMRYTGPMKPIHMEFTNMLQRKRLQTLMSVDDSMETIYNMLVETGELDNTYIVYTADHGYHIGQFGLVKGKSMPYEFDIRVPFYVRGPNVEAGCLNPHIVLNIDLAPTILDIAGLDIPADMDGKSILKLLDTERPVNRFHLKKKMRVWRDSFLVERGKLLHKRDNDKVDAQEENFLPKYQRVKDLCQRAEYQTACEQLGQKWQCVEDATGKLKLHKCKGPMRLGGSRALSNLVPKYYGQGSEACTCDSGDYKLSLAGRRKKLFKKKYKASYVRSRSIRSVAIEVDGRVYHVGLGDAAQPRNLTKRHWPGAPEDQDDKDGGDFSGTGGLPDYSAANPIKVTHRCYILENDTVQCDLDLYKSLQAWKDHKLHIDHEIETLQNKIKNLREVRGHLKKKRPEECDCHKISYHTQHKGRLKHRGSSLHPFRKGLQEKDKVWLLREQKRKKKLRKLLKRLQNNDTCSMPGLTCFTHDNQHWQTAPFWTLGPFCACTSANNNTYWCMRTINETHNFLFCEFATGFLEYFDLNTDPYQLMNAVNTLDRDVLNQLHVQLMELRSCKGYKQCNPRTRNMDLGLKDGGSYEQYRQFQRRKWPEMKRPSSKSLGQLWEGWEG
Experiment: Inhibition of Sulf-2-catalysed desulfation of 4-MUS to fluorescent MU
Assay type: biochemical
Conditions: 1 mM compound; 4-MUS substrate; means of two or more determinations; read-out: Sulf-2% inh @ 1 mM
REPORTED METRIC: inhibition at 1000 µM (%)
Numeric answer only, unit % assumed.

Indicate its recorded inhibition at 1000 µM; the molecule in question is NS(=O)(=O)Oc1cccc(Oc2ccc(NS(=O)(=O)OCC(Cl)(Cl)Cl)cc2)c1 [Compound 53] 98

Recall and state the measured inhibition at 1000 µM for NS(=O)(=O)Oc1cccc(-c2cccc(NS(=O)(=O)OCC(Cl)(Cl)Cl)c2)c1 [Compound 50] . 99

Given NS(=O)(=O)Oc1cccc(Oc2ccccc2N(S(=O)(=O)OCC(Cl)(Cl)Cl)S(=O)(=O)OCC(Cl)(Cl)Cl)c1 [Compound 61] , respond with its inhibition at 1000 µM. 18

----------
I'd appreciate it if you could supply inhibition at 1000 µM values for the items below.
Target: Sulf-2 (Homo sapiens)
Construct: host or cells: 293T cells, transiently transfected
Test: Inhibition of Sulf-2-catalysed desulfation of 4-MUS to fluorescent MU
Format: biochemical
Conditions: 1 mM compound; 4-MUS substrate; means of two or more determinations; read-out: Sulf-2% inh @ 1 mM
Quick reminder: number only, in %, skip the unit.

Recall and state the measured inhibition at 1000 µM for Nc1ccc(-c2cccc(OS(N)(=O)=O)c2)cc1 . 6

Give the reported value of inhibition at 1000 µM for this record: NS(=O)(=O)Oc1cccc(-c2cccc(NS(=O)(=O)O)c2)c1 31

Identify the reported inhibition at 1000 µM for the following entry. CC(=O)Nc1ccccc1Oc1cccc(OS(N)(=O)=O)c1 11

----------
Provide the recorded inhibition at 1000 µM for the entries that follow.
Target: aryl sulfatase A (ARSA) (Homo sapiens, UniProt P15289)
Construct: purchased R & D Systems
Sequence (P15289 19-507): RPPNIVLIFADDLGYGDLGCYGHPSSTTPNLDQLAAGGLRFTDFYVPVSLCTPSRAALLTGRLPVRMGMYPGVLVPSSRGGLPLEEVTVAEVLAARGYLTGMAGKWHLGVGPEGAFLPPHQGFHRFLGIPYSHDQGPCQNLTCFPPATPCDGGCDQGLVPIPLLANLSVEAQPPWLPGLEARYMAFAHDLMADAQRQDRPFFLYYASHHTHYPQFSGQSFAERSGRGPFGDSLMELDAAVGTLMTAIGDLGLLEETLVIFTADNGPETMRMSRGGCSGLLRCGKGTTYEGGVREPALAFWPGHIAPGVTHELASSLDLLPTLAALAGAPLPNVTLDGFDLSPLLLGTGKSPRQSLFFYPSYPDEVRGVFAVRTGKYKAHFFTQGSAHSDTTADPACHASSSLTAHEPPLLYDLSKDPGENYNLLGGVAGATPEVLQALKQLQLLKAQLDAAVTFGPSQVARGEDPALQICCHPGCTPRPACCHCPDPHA
Experiment: ARSA inhibition assay with 4-MUS substrate
Assay type: biochemical
Details: 1 mM compound; 4-MUS substrate; means of two or more determinations; read-out: ARSA% inh @ 1 mM
API: value field is a number in %; no unit string.

Tell me its inhibition at 1000 µM given NS(=O)(=O)Oc1cccc(-c2ccccc2N(S(=O)(=O)OCC(Cl)(Cl)Cl)S(=O)(=O)OCC(Cl)(Cl)Cl)c1 as the entry. 63

Assign inhibition at 1000 µM to the following record: Nc1cccc(-c2cccc(OS(N)(=O)=O)c2)c1 0

Supply inhibition at 1000 µM value. Item: Nc1ccc(-c2cccc(OS(N)(=O)=O)c2)cc1 61

Input Nc1cccc(Oc2cccc(OS(N)(=O)=O)c2)c1 , output reported inhibition at 1000 µM. 75

Provide inhibition at 1000 µM value for the following compound: O=S(=O)(Nc1cccc(-c2ccccc2)c1)OCC(F)(F)F 78

Item NS(=O)(=O)Oc1cccc(Oc2ccccc2N(S(=O)(=O)OCC(Cl)(Cl)Cl)S(=O)(=O)OCC(Cl)(Cl)Cl)c1 : provide inhibition at 1000 µM 82
